# System: CALU6 (Lung)
# Procedure Summary: In vitro combination study for selected compounds, additional cell lines
# Assay type: cell-based
# Test Parameters: drug combined with Compound 1
Readout Label: In vitro combination effect with Compound 1, Lung CALU6

Nc1ccn([C@@H]2O[C@H](CO)[C@@H](O)C2(F)F)c(=O)n1	Additive
N.N.O=C([O-])C1(C(=O)[O-])CCC1.[Pt+2]	Additive
CC(=O)O[C@H]1C(=O)[C@@]2(C)[C@H]([C@H](OC(=O)c3ccccc3)[C@]3(O)C[C@H](OC(=O)[C@H](O)[C@@H](NC(=O)c4ccccc4)c4ccccc4)C(C)=C1C3(C)C)[C@]1(OC(C)=O)CO[C@@H]1C[C@@H]2O	Additive
O=C1[O][Pt]2([NH][C@@H]3CCCC[C@H]3[NH]2)[O]C1=O	Additive

// moving on: another record for In vitro combination effect with Compound 1, Lung CALU6
**Q:** So what does the record say about In vitro combination effect with Compound 1, Lung CALU6 for N.N.[Cl][Pt][Cl] [Cisplatin] ?
**A:** Additive

Reference source for all entries: patent US20220323443A1
